Study System: T1, recombinant, soluble human ASGR-1 (human, UniProt P07306 62-291)
T1 construct: biotinylated in the binning assay; also called soluble huASGR-1; Soluble ASGR-1 (Amgen)
T1 sequence: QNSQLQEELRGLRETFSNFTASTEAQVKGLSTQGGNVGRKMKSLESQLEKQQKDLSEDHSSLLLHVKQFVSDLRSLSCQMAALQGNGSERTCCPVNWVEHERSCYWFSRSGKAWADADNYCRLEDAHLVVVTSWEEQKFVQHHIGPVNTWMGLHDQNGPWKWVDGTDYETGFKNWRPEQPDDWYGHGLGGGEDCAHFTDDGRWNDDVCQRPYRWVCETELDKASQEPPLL
Assay Procedure: Octet BLI dissociation, pH 7.4 minus calcium
// values below are reported % Change Compared to pH 7.4 + Calcium
The reply should be a number in %, with the unit left off.

I have this binder here, 227F2 (antibody, V domains shown, hybridoma mAb) VH: QVHLVQSGAEVKKPGASVKVSCKASGYTFTGYYIHWVRQAPGQGLEWMGWINPYSGDTKYAQKFQGRVTMTRDTSISTAYMELSRLRFDDTAVFYCARDWGGYSSYYYGMDVWGQGTTVTVSS VL: DIVMTQTPLSLSVTPGQPASISCKSSQSLLHSDGKTFLYWYLQKPGQPPQLLIYEISNRFSGVPDRFSGSGSGTDFTLKISRVEAEDVGIYYCMQSTQLPRTFGQGTKVEIK , and I need its recorded % Change Compared to pH 7.4 + Calcium. 80

Need % Change Compared to pH 7.4 + Calcium, item 218G4 (antibody, V domains shown, hybridoma mAb) VH: QVQLVESGGGVVQPGRSLRLSCAASGFTFSSYGLHWVRQAPGKGLEWVAVIWYDGSNKYYADSVKGRFTISRDNSKNTLYLQMNSLRVEDTAVYYCANWYYYYYGMDVWGQGTTVTVSS VL: QSVLTQPPSVSAAPGQKVTISCSGSSSNIGNNYVSWYQQLPGTAPKLLLYDSNKRPSGIPARFSGSKSGTSATLGITGLQTGDEADYYCGTWDSSLNTVVFGGGTKLTVL 1
